Reference source for all entries: the nanobody polyreactivity screen of Harvey et al. (2022)

Assay Info: yeast display, Sf9 membrane polyspecificity reagent, FACS + sequencing; frameworks hold sequencing errors
Experimental Readout: polyreactivity (PSR sort gate)

The cases that follow already have their polyreactivity (PSR sort gate) on record.
# Seq String, Test Value
records = [
    ("QVQLVESGGGLVQAGGSLRLSCAASGSIFFTYAMGWYRQAPGKERELVAGISWGGGSTHYADSVKGRFTISRDNAKNTVYLQMNSLKPEDTAVYYCARVWPYPSTEYGYTGRLYDYWGQGTQVTVSS", "low polyreactivity"),
    ("QVQLVESGGGLVQAGGSLRLSCAASGSTFATNTMGWYRQAPGKERELVARITSSDGSTTYADSVKGRFTISRDNAKNTDYLQMNSLKPEDTAVYYCAAAYGRRWGYDYWGQGTQVTVSS", "low polyreactivity"),
    ("QVQLVESGGGLVQAGGSLRLSCAASGGTFSTYAMGWYRQAPGKERELVAAISYSTGNTYYADSVKGRFTISRDNAKNTVYFQMNSLKPEDTAVYYCATLGGSQRGLGSFTRKYDYWGQGTQVTVSS", "low polyreactivity"),
    ("QVQLVESGGGLVQAGGSLSLSCAASGGTFLSNAMGWYRQAPGKERELVASISWGGGSTTYADSVKGRFTISRDNAKNTVYLQMNSLKPEDTAVYYCNALDGPGYYVDYDYWGQGTQVTVSS", "low polyreactivity"),
    ("QVQLVESGGGLVQAGCSLRLSCAASGSVFTVYSMGWYRQAPGKERELVAAITRNGGRTYYADSVKVRFTISRDNSKNTVYLQMKILKPEDTAVYSCAATGLYSRLDYWGQGTQVTVSS", "high polyreactivity"),
    ("QVQLVESGPGLVQAGGSLRLSCAASGSTFAPYALGWYRQAPGIEMELVAAIRSSGGSTYYADSVKGGFTISRDNAKNTVYLQMNSLKPEDTAVYYCADDYYTSADYVDYYYWGQGTQVTVSS", "low polyreactivity"),
]

Would you be so kind as to report polyreactivity (PSR sort gate) for each listed record?
1. QVQLVESRGGLVQAGGSLRLSCAASGSTFSANTMGWNRQAPGKERELVAGITNTGDTYYADSVKGRFTLSRDNAKNTVYLQMNSLKPEDTAVYYCAADSWRLTDGAYWSTVYYWGQGNQVTVSS
2. QVHLVESGGGLVQAGGSLRLRCAASGSTFGYYAMGWYRQAPGKERELVAAIRGSVTRTYYADSVKGRFTISRDNAKNTVYLEMNSLKPEDTAVYYCAAGSRLGWGSEYWGQGTQVTVSS
3. QVQLVESGGGLVQAGGSLRLSCAASGRTFYSNTMGWYRQSPGKERELVAAIDWSGGRTYYADSVKGRFTISRDNAKNTVYLQMHSLKPEDTAVYYCNTVGYSLRLRTGGYWGQGTQVTVSS
4. QVQLVESGGGLVQAGGSLRLSCAASGFTFSSYAMGWYRQAPGKERELVAAISTRGGSTYYADSVKGRFTISRDNAKNTVYLQMNSLKPEETAVYYCAARYGTSYKVRWTYYAFDYWGQGTQVTVSS
5. QVQLVESGGGLVQAGGSLRLSCAASGFIWSYVMGWYRQAPGKERQLVAAISRSGGRTYYADSVKGRFTISRDNEKNTVYLQMNSLKPEDTAVYYCAKDGGWSRLHYNYWGQGTQVTVSS
6. QVQLEESGGGLVQAGGRLRLSCAASGSTYSEYAMGWSRKAPGKQRELVAAINWSGGSTYYADSVKGRFTISRDNAKNTVYLQMNSLKPEDTAVYYCNKVFRHHWYPAYNSWGQGTQVTVSS

[reply]
1. low polyreactivity
2. high polyreactivity
3. high polyreactivity
4. low polyreactivity
5. high polyreactivity
6. low polyreactivity
